Source: PubChem BioAssay AID645

Target: Receptor tyrosine-protein kinase erbB-2 (Homo sapiens) (UniProt P04626)
Sequence (P04626 whole entry, looked up): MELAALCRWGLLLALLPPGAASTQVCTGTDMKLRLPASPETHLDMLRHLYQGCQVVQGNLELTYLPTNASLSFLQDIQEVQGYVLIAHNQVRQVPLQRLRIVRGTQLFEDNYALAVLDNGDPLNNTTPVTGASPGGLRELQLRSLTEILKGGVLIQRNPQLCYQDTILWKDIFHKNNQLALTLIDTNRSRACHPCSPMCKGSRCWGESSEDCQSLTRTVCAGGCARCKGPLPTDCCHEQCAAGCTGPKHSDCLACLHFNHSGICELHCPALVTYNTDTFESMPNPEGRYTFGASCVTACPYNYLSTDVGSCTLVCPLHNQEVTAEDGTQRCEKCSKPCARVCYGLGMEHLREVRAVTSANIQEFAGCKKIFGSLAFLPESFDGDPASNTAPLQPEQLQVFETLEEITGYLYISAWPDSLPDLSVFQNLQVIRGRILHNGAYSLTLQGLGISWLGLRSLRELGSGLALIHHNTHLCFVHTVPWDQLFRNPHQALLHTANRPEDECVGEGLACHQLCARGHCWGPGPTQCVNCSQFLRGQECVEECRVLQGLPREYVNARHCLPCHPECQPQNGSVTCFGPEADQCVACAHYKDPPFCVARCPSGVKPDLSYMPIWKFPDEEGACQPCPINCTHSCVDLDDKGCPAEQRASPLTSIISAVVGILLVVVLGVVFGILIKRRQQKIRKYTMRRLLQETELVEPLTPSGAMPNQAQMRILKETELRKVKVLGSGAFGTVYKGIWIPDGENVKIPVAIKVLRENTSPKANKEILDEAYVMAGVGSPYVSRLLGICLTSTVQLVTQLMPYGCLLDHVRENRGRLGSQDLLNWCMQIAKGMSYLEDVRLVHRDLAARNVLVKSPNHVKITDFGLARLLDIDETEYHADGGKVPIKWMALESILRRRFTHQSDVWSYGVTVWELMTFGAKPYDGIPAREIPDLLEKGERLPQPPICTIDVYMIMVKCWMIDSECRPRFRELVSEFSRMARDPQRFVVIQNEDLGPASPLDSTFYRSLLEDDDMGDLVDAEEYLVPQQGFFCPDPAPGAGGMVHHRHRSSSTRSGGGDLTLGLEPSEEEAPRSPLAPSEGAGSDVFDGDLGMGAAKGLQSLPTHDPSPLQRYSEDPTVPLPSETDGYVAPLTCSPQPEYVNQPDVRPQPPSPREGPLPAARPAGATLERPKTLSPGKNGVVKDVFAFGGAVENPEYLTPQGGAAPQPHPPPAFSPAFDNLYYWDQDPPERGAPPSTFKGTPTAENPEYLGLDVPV
Assay: inhibitors of Her2 protein expression, primary screen, SKBR-3 cells, AlphaScreen, 66K library (AID 645);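 also: 100% = DMSO carrier and 0% = 500 nM PU-H71 HSP90 inhibitor; lower value means stronger loss of Her2 protein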
Settings: SKBR-3 HER2 protein level, 18-24 h, at 10 µM
Among all 65,000 compounds or so, about 450 (0.69%) were called active.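 The calls were made as follows: active = HER2 level under 5% of the carrier-only control; inconclusive = no clear call, values can overlap the other calls; inactive = the rest.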 Only a selection was taken, and actives are over-represented in it overall.
Just give me one of these, please: active, inactive

How did this test come out for `Cc1c(CN2CCC(C)CC2)c(=O)n(-c2ccccc2)n1C` ? inactive

How did this test come out for `Cc1cc(C)c2c(c1)c(C)cc1nnc(SCC(=O)NCc3ccco3)n12` ? inactive

How did this test come out for `CCc1nc2ccccc2n(CCOCCOCCn2c(=O)c(CC)nc3ccccc32)c1=O` ? inactive

How did this test come out for `COc1cc(NS(=O)(=O)c2ccc(NC(C)=O)cc2)cc(OC)c1` ? inactive

How did this test come out for `CCOc1ccccc1N=C1NC(=O)CS1` ? inactive

How did this test come out for Cc1cc(C)nc(NC(=O)C(C)N2C(=O)c3ccccc3C2=O)n1 (centres undefined) ? inactive

How did this test come out for COC(=O)c1ccc(NC(=O)C(C)N2C(=O)c3ccccc3C2=O)cc1 (centres undefined) ? active

How did this test come out for `COc1ccccc1N1CCN(Cc2nnnn2CCc2ccccc2)CC1` ? inactive

How did this test come out for `Brc1cnc(N2CCCC2)nc1N1CCCCC1` ? inactive

How did this test come out for `CCOC(=O)N1CCN(C(=O)CN(c2ccc(C)c(C)c2)S(=O)(=O)c2ccccc2)CC1` ? inactive

How did this test come out for CCN(CC)C(=O)C1CCC(C)(C(=O)O)C1(C)C (centres undefined) ? inactive

How did this test come out for `COc1ccc(CN2CN(C(C)C)CSC2=S)cc1` ? inactive

How did this test come out for `CC(=O)Nc1nc(C)c(Cc2ccccc2)c(=O)[nH]1` ? inactive

How did this test come out for `COC(=O)c1ccc(NC(=O)c2ccco2)cc1` ? inactive

How did this test come out for `Cn1c(=O)c2c(nc(CN3CCOCC3)n2Cc2ccccc2)n(C)c1=O` ? inactive

How did this test come out for `CC(=O)Nc1ccc(NS(=O)(=O)c2cc(C)sc2C)cc1` ? active

How did this test come out for `Cn1c(SCC(=O)Nc2cccc(O)c2)nnc1-c1ccc(S(=O)(=O)N2CCOCC2)cc1` ? inactive

How did this test come out for COc1ccc(C(CNC(=O)c2cccnc2SC)N2CCOCC2)cc1 (centres undefined) ? inactive

How did this test come out for `COc1ccccc1N1CCN(C(=O)CN(Cc2ccc(Cl)cc2)S(C)(=O)=O)CC1` ? inactive

How did this test come out for `S=C1SCN(CCN2CCOCC2)CN1Cc1ccccc1` ? active

How did this test come out for `CN(C)c1nc2n(c(=O)n1)CCO2` ? inactive

How did this test come out for CCC1(C)N(O)C(C)(C)C(c2ccc(OC)cc2)=[N+]1[O-] (centres undefined) ? inactive

How did this test come out for `Cc1nnc(NC2=NCCCCC2)o1` ? inactive

How did this test come out for `O=C1CSC(=O)N1CCOCCN1C(=O)CSC1=O` ? inactive

====

Give HER2 level % of control for every item shown.
Target: Receptor tyrosine-protein kinase erbB-2 (Homo sapiens)
Assay: inhibitors of Her2 protein expression, primary screen, SKBR-3 cells, AlphaScreen, 66K library (AID 645);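 also: 100% = DMSO carrier and 0% = 500 nM PU-H71 HSP90 inhibitor; lower value means stronger loss of Her2 protein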
Settings: SKBR-3 HER2 protein level, 18-24 h, at 10 µM, stronger effect = lower value
Hit rate of the full screen: of about 65,000 compounds, about 450 (0.69%) were called active. The entries come from a sample that favours actives as a whole.
Write the number in % without appending the unit.

Just so you know, measured HER2 level % of control for OC1CN=C2Sc3ccccc3N2C1 (stereo not given) came out at 119

Just so you know, measured HER2 level % of control for `CCn1ncc(Br)c1C(=O)Nc1cc(C)ccc1F` came out at 75.8

Just so you know, measured HER2 level % of control for OC(COc1ccc2ccccc2c1)CN1CCOCC1 (stereo not given) came out at 113

Just so you know, measured HER2 level % of control for `O=S(=O)(Nc1ccccc1N1CCOCC1)c1ccc(Cl)s1` came out at 95.5

Just so you know, measured HER2 level % of control for O=C(O)C1C2C=CC(C2)C1C(=O)N1CCN(CCO)CC1 (stereo not given) came out at 56.8

====

Molecular target: Receptor tyrosine-protein kinase erbB-2 (Homo sapiens) (UniProt P04626)
Assay: inhibitors of Her2 protein expression, primary screen, SKBR-3 cells, AlphaScreen, 66K library (AID 645);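 also: 100% = DMSO carrier and 0% = 500 nM PU-H71 HSP90 inhibitor; lower value means stronger loss of Her2 protein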
Conditions: SKBR-3 HER2 protein level, 18-24 h, at 10 µM, stronger effect = lower value
Among all 65,000 compounds or so, about 450 (0.69%) were called active. The entries come from a sample that favours actives as a whole.
// classify: if (HER2 level % of control < 70%) true (1) else false (0)

For this compound, is HER2 level % of control lower than 70%? `CCCc1nc(SCC(=O)Nc2ccccc2OC)c2c(=O)n(C)c(=O)n(C)c2n1` true (1)

For this compound, is HER2 level % of control lower than 70%? `O=c1[nH]c(CSc2ncc(-c3ccc(F)cc3)n2Cc2ccco2)nc2ccccc12` true (1)

For this compound, is HER2 level % of control lower than 70%? CC(C)C(=O)N1CCN(CCN=CC2=C(O)CC(c3ccco3)CC2=O)CC1 (stereo unspecified) false (0)

For this compound, is HER2 level % of control lower than 70%? `OCCNCCCCOc1ccccc1F` false (0)

For this compound, is HER2 level % of control lower than 70%? `Cc1nc2ccc(S(=O)(=O)NCC(=O)O)cc2s1` false (0)
